Test system: IGROV1 complex spheroids (HUVEC, MSC), viability % test/control
Test: Anticancer human tumor IGROV1 cell line growth inhibition [GQUAD];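 also: spheroids exposed to compounds for 7 days before readout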
Conditions: curve of first compound; second compound 1 µM
recorded-metric: pIC50
Quick note: pIC50 values are minus log10 of concentrations in mol/L.

// worked examples, pIC50 included
COc1cccc2c1C(=O)c1c(O)c3c(c(O)c1C2=O)CC(O)(C(=O)CO)CC3OC1CC(N)C(O)C(C)O1 (stereo not given) + CN(C)c1ccc(Nc2c3ccc(NC(=O)CCN4CCCC4)cc3nc3cc(NC(=O)CCN4CCCC4)ccc23)cc1    7.49
C=CCn1c(=O)c2cnc(Nc3ccc(N4CCN(C)CC4)cc3)nc2n1-c1cccc(C(C)(C)O)n1 + CN(C)c1ccc(Nc2c3ccc(NC(=O)CCN4CCCC4)cc3nc3cc(NC(=O)CCN4CCCC4)ccc23)cc1    6.87

Query compound follows.
Enquiry: What pIC50 appears in the records for this compound with IGROV1 complex spheroids (HUVEC, MSC), viability % test/control? CC1COCCN1c1cc(-c2ccnn2C)c2ccnc(-c3ccn[nH]3)c2n1 (stereo not given) + CN(C)c1ccc(Nc2c3ccc(NC(=O)CCN4CCCC4)cc3nc3cc(NC(=O)CCN4CCCC4)ccc23)cc1
Return: 7.37

###

The entries below come with measured viability, T/C values attached.
System: IGROV1 complex spheroids (HUVEC, MSC), viability % test/control
Assay: Anticancer human tumor IGROV1 cell line growth inhibition [GQUAD];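 also: spheroids exposed to compounds for 7 days before readout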;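 as to viability, T/C: 100% = DMSO vehicle control viability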
Settings: second compound 3.16 µM; first compound 3.16 µM; stronger effect = lower value

Some molecules with known viability, T/C results, for comparison:
C=CC(=O)N1CCN(c2nc(=O)n(-c3c(C)ccnc3C(C)C)c3nc(-c4c(O)cccc4F)c(F)cc23)C(C)C1 (centres undefined) + CN(C)c1ccc(Nc2c3ccc(NC(=O)CCN4CCCC4)cc3nc3cc(NC(=O)CCN4CCCC4)ccc23)cc1    99.5%
COc1ncnc(C2CC2)c1-c1ncc2cnn(Cc3ccc(-c4nc(C(F)(F)F)cn4C(C)C)cc3)c2n1 + CN(C)c1ccc(Nc2c3ccc(NC(=O)CCN4CCCC4)cc3nc3cc(NC(=O)CCN4CCCC4)ccc23)cc1    75%
COc1ncnc(C2CC2)c1-c1ncc2cnn(Cc3ccc(-c4nc(C(F)(F)F)cn4C(C)C)cc3)c2n1 + Cc1cnc(CNC(=O)c2c(=O)c3ccc(N4CCCN(C)CC4)nc3n3c2sc2ccccc23)cn1    9.64%

Enquiry: Endpoint output: viability, T/C of CC(=O)O[C@H]1C(=O)[C@@]2(C)[C@H]([C@H](OC(=O)c3ccccc3)[C@]3(O)C[C@H](OC(=O)[C@H](O)[C@@H](NC(=O)c4ccccc4)c4ccccc4)C(C)=C1C3(C)C)[C@]1(OC(C)=O)CO[C@@H]1C[C@@H]2O + CN(C)c1ccc(Nc2c3ccc(NC(=O)CCN4CCCC4)cc3nc3cc(NC(=O)CCN4CCCC4)ccc23)cc1 . Value?
Return: 6.1%

###

Tested on: IGROV1 complex spheroids (HUVEC, MSC), viability % test/control
Assay: Anticancer human tumor IGROV1 cell line growth inhibition [GQUAD];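 also: spheroids exposed to compounds for 7 days before readout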
Details: curve of first compound; second compound 0.0316 µM
From the text: DNA G-quadruplex Stabilizer Agents in Combinations in Complex Spheroids A high-throughput screen of multi-cell type tumor spheroids was designed to identify active combinations of DNA G-quadruplex stabilizer agents and targeted small molecules. […] Compounds. […] If the clinical Cmax for an agent had not been determined, the highest concentration tested was 10 microM. […]
Note to self: IC50 under 1000 nM means true, ties and anything higher get false.

Enquiry: hey, is IC50 for C=CC(=O)N1CCN(c2nc(=O)n(-c3c(C)ccnc3C(C)C)c3nc(-c4c(O)cccc4F)c(F)cc23)C(C)C1 (stereo not given) + CN(C)c1ccc(Nc2c3ccc(NC(=O)CCN4CCCC4)cc3nc3cc(NC(=O)CCN4CCCC4)ccc23)cc1 lower than 1000 nM or not?
Return: false

Enquiry: Try this compound next: Cn1ncnc1[C@H]1c2n[nH]c(=O)c3cc(F)cc(c23)N[C@@H]1c1ccc(F)cc1 + CN(C)c1ccc(Nc2c3ccc(NC(=O)CCN4CCCC4)cc3nc3cc(NC(=O)CCN4CCCC4)ccc23)cc1
Return: true

Enquiry: Request: CC(=O)O[C@H]1C(=O)[C@@]2(C)[C@H]([C@H](OC(=O)c3ccccc3)[C@]3(O)C[C@H](OC(=O)[C@H](O)[C@@H](NC(=O)c4ccccc4)c4ccccc4)C(C)=C1C3(C)C)[C@]1(OC(C)=O)CO[C@@H]1C[C@@H]2O + Cc1cnc(CNC(=O)c2c(=O)c3ccc(N4CCCN(C)CC4)nc3n3c2sc2ccccc23)cn1
Return: true

###

System: IGROV1 complex spheroids (HUVEC, MSC), viability % test/control
Test: Anticancer human tumor IGROV1 cell line growth inhibition [GQUAD];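 also: spheroids exposed to compounds for 7 days before readout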;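 as to viability, T/C: 100% = DMSO vehicle control viability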
Details: second compound 0.1 µM; first compound 0.316 µM; stronger effect = lower value
Field: label. Allowed values: condition met (viability, T/C < 40%) or condition not met (viability, T/C >= 40%).

CC(=O)O[C@H]1C(=O)[C@@]2(C)[C@H]([C@H](OC(=O)c3ccccc3)[C@]3(O)C[C@H](OC(=O)[C@H](O)[C@@H](NC(=O)c4ccccc4)c4ccccc4)C(C)=C1C3(C)C)[C@]1(OC(C)=O)CO[C@@H]1C[C@@H]2O + CN(C)c1ccc(Nc2c3ccc(NC(=O)CCN4CCCC4)cc3nc3cc(NC(=O)CCN4CCCC4)ccc23)cc1    condition met

Enquiry: Input C#Cc1c(F)ccc2cc(O)cc(-c3ncc4c(N5CC6CCC(C5)N6)nc(OCC56CCCN5CC(F)C6)nc4c3F)c12 (stereo unspecified) + Cc1cnc(CNC(=O)c2c(=O)c3ccc(N4CCCN(C)CC4)nc3n3c2sc2ccccc23)cn1 ; condition: viability, T/C strictly below 40%. Does it hold?
Return: condition met

Enquiry: Next: O=c1[nH]cc(F)c(=O)[nH]1 + Cc1[nH]c2ccc(F)cc2c1-c1nc2c3cccnc3c3ncccc3c2[nH]1
Return: condition not met

Enquiry: Record: CC1COCCN1c1cc(C2(S(C)(=N)=O)CC2)nc(-c2ccnc3[nH]ccc23)n1 (stereo unspecified) + CN(C)c1ccc(Nc2c3ccc(NC(=O)CCN4CCCC4)cc3nc3cc(NC(=O)CCN4CCCC4)ccc23)cc1
Return: condition not met

###

Tested on: IGROV1 complex spheroids (HUVEC, MSC), viability % test/control
Test: Anticancer human tumor IGROV1 cell line growth inhibition [GQUAD];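 also: spheroids exposed to compounds for 7 days before readout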;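 as to viability, T/C: 100% = DMSO vehicle control viability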
Conditions: second compound 1 µM; first compound 0.316 µM; stronger effect = lower value
Source text: DNA G-quadruplex Stabilizer Agents in Combinations in Complex Spheroids A high-throughput screen of multi-cell type tumor spheroids was designed to identify active combinations of DNA G-quadruplex stabilizer agents and targeted small molecules. […] Compounds. […] If the clinical Cmax for an agent had not been determined, the highest concentration tested was 10 microM. […]
Checkbox rule: viability, T/C lower than 10% = met; viability, T/C not lower than 10% = not met.

Consider the following illustrative entries.
C=CCn1c(=O)c2cnc(Nc3ccc(N4CCN(C)CC4)cc3)nc2n1-c1cccc(C(C)(C)O)n1 + Cc1cnc(CNC(=O)c2c(=O)c3ccc(N4CCCN(C)CC4)nc3n3c2sc2ccccc23)cn1    met
C#Cc1c(F)ccc2cc(O)cc(-c3ncc4c(N5CC6CCC(C5)N6)nc(OCC56CCCN5CC(F)C6)nc4c3F)c12 (stereo not given) + Cc1cnc(CNC(=O)c2c(=O)c3ccc(N4CCCN(C)CC4)nc3n3c2sc2ccccc23)cn1    not met
CC(C)(O)C1CCC(Nc2ccc3ncc(-c4cccc(C(F)(F)F)c4)n3n2)CC1 (stereo not given) + CN(C)c1ccc(Nc2c3ccc(NC(=O)CCN4CCCC4)cc3nc3cc(NC(=O)CCN4CCCC4)ccc23)cc1    not met
O=c1[nH]cc(F)c(=O)[nH]1 + Cc1cnc(CNC(=O)c2c(=O)c3ccc(N4CCCN(C)CC4)nc3n3c2sc2ccccc23)cn1    not met

// switching to the query compound
Enquiry: Hi there! Is viability, T/C for CCCS(=O)(=O)Nc1ccc(F)c(C(=O)c2c[nH]c3ncc(-c4ccc(Cl)cc4)cc23)c1F + Cc1cnc(CNC(=O)c2c(=O)c3ccc(N4CCCN(C)CC4)nc3n3c2sc2ccccc23)cn1 below 10%, do you know?
Return: not met

###

System: IGROV1 complex spheroids (HUVEC, MSC), viability % test/control
Assay: Anticancer human tumor IGROV1 cell line growth inhibition [GQUAD];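 also: spheroids exposed to compounds for 7 days before readout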;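 as to viability, T/C: 100% = DMSO vehicle control viability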
Conditions: second compound 0.1 µM; first compound 0.316 µM; stronger effect = lower value
recorded-metric: viability, T/C (%)
Give a bare numeral; the unit % is implied.

CC(C)(O)C1CCC(Nc2ccc3ncc(-c4cccc(C(F)(F)F)c4)n3n2)CC1 (stereo not given) + Cc1cnc(CNC(=O)c2c(=O)c3ccc(N4CCCN(C)CC4)nc3n3c2sc2ccccc23)cn1    33.9
Cn1ncnc1[C@H]1c2n[nH]c(=O)c3cc(F)cc(c23)N[C@@H]1c1ccc(F)cc1 + Cc1cnc(CNC(=O)c2c(=O)c3ccc(N4CCCN(C)CC4)nc3n3c2sc2ccccc23)cn1    19
C=CC(=O)N1CCN(c2nc(=O)n(-c3c(C)ccnc3C(C)C)c3nc(-c4c(O)cccc4F)c(F)cc23)C(C)C1 (stereo not given) + CN(C)c1ccc(Nc2c3ccc(NC(=O)CCN4CCCC4)cc3nc3cc(NC(=O)CCN4CCCC4)ccc23)cc1    96.3
CC[C@@]1(O)C(=O)OCc2c1cc1n(c2=O)Cc2cc3c(CN(C)C)c(O)ccc3nc2-1 + Cc1cnc(CNC(=O)c2c(=O)c3ccc(N4CCCN(C)CC4)nc3n3c2sc2ccccc23)cn1    9.62

Below: the item to evaluate.
Enquiry: Quick one: viability, T/C of CC1COCCN1c1cc(C2(S(C)(=N)=O)CC2)nc(-c2ccnc3[nH]ccc23)n1 (stereo not given) + Cc1cnc(CNC(=O)c2c(=O)c3ccc(N4CCCN(C)CC4)nc3n3c2sc2ccccc23)cn1 ?
Return: 16.5
